These measurements were taken from ChEMBL document CHEMBL1139009.

studySystem: Vasopressin V1a receptor (Rattus norvegicus)
assayRemarks: Pressor activity against V1a receptor in Wistar rat
measurementName: pressor activity (IU/mg)

// worked examples, pressor activity included
### Prompt Give its pressor activity value. Item: "CC(C)C[C@H](NC(=O)[C@@H]1CCCN1C(=O)[C@H]1CSSC2(CCCCC2)CC(=O)N2CCN(C(=O)[C@@H]2Cc2ccccc2)[C@@H](Cc2ccccc2)C(=O)N[C@@H](CCC(N)=O)C(=O)N[C@@H](CC(N)=O)C(=O)N1)C(=O)NCC(N)=O"
### Response 0

### Prompt Give its pressor activity value. Item: "CC(C)[C@@H]1NC(=O)[C@H](C)N(Cc2ccccc2)C(=O)[C@H](Cc2ccc(O)cc2)NC(=O)CCSSC[C@H](C(=O)N2CCC[C@H]2C(=O)N[C@@H](CCCN=C(N)N)C(=O)NCC(N)=O)NC(=O)[C@H](CC(N)=O)NC1=O"
### Response 0

1: CC(C)C[C@H](NC(=O)[C@@H]1CCCN1C(=O)[C@H]1CSSC[C@@H](N)C(=O)N2CCN(C(=O)[C@@H]2Cc2ccccc2)[C@@H](Cc2ccccc2)C(=O)N[C@@H](CCC(N)=O)C(=O)N[C@@H](CC(N)=O)C(=O)N1)C(=O)NCC(N)=O
2: NC(=O)CC[C@@H]1NC(=O)[C@H](Cc2ccccc2)NC(=O)[C@H](Cc2ccc(O)cc2)NC(=O)[C@@](N)(CO)CSSC[C@H](C(=O)N2CCC[C@H]2C(=O)N[C@@H](CCCN=C(N)N)C(=O)NCC(N)=O)NC(=O)[C@H](CC(N)=O)NC1=O
### Prompt Between these two entries, 1 and 2 , state which has the higher pressor activity. Reply briefly: the label of your chosen item.
### Response 2

###

studySystem: Vasopressin V1a receptor (Rattus norvegicus)
assayRemarks: Pressor activity against V1a receptor in Wistar rat
measurementName: pressor activity (IU/mg)

### Prompt Give its pressor activity value. Item: "CC(C)[C@@H]1NC(=O)[C@H](C)N(Cc2ccccc2)C(=O)[C@H](Cc2ccc(O)cc2)NC(=O)[C@H](N)CSSC[C@H](C(=O)N2CCC[C@H]2C(=O)N[C@@H](CCCN=C(N)N)C(=O)NCC(N)=O)NC(=O)[C@H](CC(N)=O)NC1=O"
### Response 0

### Prompt Give its pressor activity value. Item: "CC(C)C[C@H](NC(=O)[C@@H]1CCCN1C(=O)[C@H]1CSSCCC(=O)N2CCN(C(=O)[C@@H]2Cc2ccccc2)[C@@H](Cc2ccccc2)C(=O)N[C@@H](CCC(N)=O)C(=O)N[C@@H](CC(N)=O)C(=O)N1)C(=O)NCC(N)=O"
### Response 0

###

studySystem: Oxytocin receptor (Rattus norvegicus)
Sequence (P70536 whole entry): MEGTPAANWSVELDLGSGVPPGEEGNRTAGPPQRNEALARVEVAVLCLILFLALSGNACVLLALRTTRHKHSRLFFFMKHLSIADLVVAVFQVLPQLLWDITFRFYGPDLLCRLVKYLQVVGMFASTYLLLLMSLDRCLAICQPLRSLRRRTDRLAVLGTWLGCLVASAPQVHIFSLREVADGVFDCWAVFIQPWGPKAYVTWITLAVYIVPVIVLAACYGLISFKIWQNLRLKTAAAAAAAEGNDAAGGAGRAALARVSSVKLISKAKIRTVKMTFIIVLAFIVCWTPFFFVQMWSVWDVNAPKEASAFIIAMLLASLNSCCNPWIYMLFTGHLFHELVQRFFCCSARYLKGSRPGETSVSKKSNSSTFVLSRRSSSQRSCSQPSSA
assayRemarks: Uterotonic activity against OT receptor in Wistar rat in absence of magnesium
Assay type: functional
measurementName: pA2

### Prompt For Oxytocin receptor (Rattus norvegicus), provide pA2 of "NC(=O)CC[C@@H]1NC(=O)[C@H](Cc2ccccc2)NC(=O)[C@H](Cc2ccc(O)cc2)NC(=O)[C@@](N)(CO)CSSC[C@@H](C(=O)N2CCC[C@H]2C(=O)N[C@@H](CCCN=C(N)N)C(=O)NCC(N)=O)NC(=O)[C@H](CC(N)=O)NC1=O" please.
### Response 6.4

### Prompt For Oxytocin receptor (Rattus norvegicus), provide pA2 of "CC(C)C[C@H](NC(=O)[C@@H]1CCCN1C(=O)[C@@H]1CSSC2(CCCCC2)CC(=O)N2CCN(C(=O)[C@@H]2Cc2ccccc2)[C@@H](Cc2ccccc2)C(=O)N[C@@H](CCC(N)=O)C(=O)N[C@@H](CC(N)=O)C(=O)N1)C(=O)NCC(N)=O" please.
### Response 6.72

### Prompt For Oxytocin receptor (Rattus norvegicus), provide pA2 of "CC(C)C[C@H](NC(=O)[C@@H]1CCCN1C(=O)[C@@H]1CSSCCC(=O)N2CCN(C(=O)[C@@H]2Cc2ccccc2)[C@@H](Cc2ccccc2)C(=O)N[C@@H](CCC(N)=O)C(=O)N[C@@H](CC(N)=O)C(=O)N1)C(=O)NCC(N)=O" please.
### Response 6.5

### Prompt For Oxytocin receptor (Rattus norvegicus), provide pA2 of "CC(C)C[C@H](NC(=O)[C@@H]1CCCN1C(=O)[C@@H]1CSSC[C@H](N)C(=O)N2CCN(C(=O)[C@@H]2Cc2ccccc2)[C@@H](Cc2ccccc2)C(=O)N[C@@H](CCC(N)=O)C(=O)N[C@@H](CC(N)=O)C(=O)N1)C(=O)NCC(N)=O" please.
### Response 6.82
